These data points were gathered from PubChem BioAssay (NCI).

- Test system: UACC-257 melanoma
- TEST SUMMARY: NCI-60 one-dose screen, 48 h
- REPORTED CONDITIONS: 10 µM
The panel holds about 83,000 compounds, 20% with a hit somewhere; the sample as a whole holds those more often. The source made the active and inactive calls. The calls were made as follows: active = growth percent below 10; inactive = the rest.
Assign a class; possible classes are active, inactive

Answered cases to consult:
MOLECULE | TARGET OF ASSAY | CLASS
CC/C(=C/c1ccc(OC)cc1OC)[N+](=O)[O-] | UACC-257 melanoma | inactive
COC12C(COC(N)=O)C3=C(C(=O)C(C)=C(N)C3=O)N1CC1C2N1C (stereo not drawn) | UACC-257 melanoma | inactive
CC[C@@H](C)[C@@H]1NC(=O)C(NC(=O)C(CC(C)C)N(C)C(=O)C2CCCN2C(=O)C(C)O)C(C)OC(=O)C(Cc2ccc(OC)cc2)N(C)C(=O)C2CCCN2C(=O)C(CC(C)C)NC(=O)C(C)C(=O)C(C(C)C)OC(=O)C[C@H]1O (stereo partly drawn) | UACC-257 melanoma | active
O=C1C(=O)c2ccccc2-c2ccccc21 | UACC-257 melanoma | active
O=[N+]([O-])/C=C/c1ccc(Cl)cc1[N+](=O)[O-] | UACC-257 melanoma | inactive

In this assay, the call recorded for COc1cc(/C=C/[N+](=O)[O-])cc(Br)c1OC was what? active

Check the results log: what was the call for [Cl][Sn]([c]1ccccc1)([c]1ccccc1)[c]1ccccc1 ? active

Test call, this molecule: COc1cc(/C=C/[N+](=O)[O-])cc(OC)c1OC active
